Recorded values, source patent US20240158368A1.

I'd appreciate it if you could supply CLint scaled values for the items below.
experiment: in vitro; details: rat, microsomes, pH 7.4
The response must be a number in mL/min/kg with no trailing unit.

Recorded CLint scaled (compound O=C(N[C@@H]1CCN(c2c(C(=O)N3CCOCC3)cc(Cl)cc2C(F)(F)F)C1)c1cc(=O)[nH]c2c(F)cccc12 ): 403

Looking up CN1CCN(C(=O)c2cc(Cl)cc(C(F)(F)F)c2N2CC[C@@H](NC(=O)c3cc(=O)[nH]c4c(F)cccc34)C2)CC1 , I found its CLint scaled recorded as 423

Briefly, CLint scaled measured for O=C(N[C@@H]1CCN(c2c(C(=O)N3CCCC3)cc(Br)cc2C(F)(F)F)C1)c1cc(=O)[nH]c2c(F)cccc12 : 1120

Sure, the documented CLint scaled for COc1cccc2[nH]c(=O)cc(C(=O)N[C@@H]3CCN(c4c(Cl)cc(C)cc4C(=O)N4CCOCC4)C3)c12 is 288

----------
Provide the reported CLint scaled of each item.
experiment: in vitro; details: human, microsomes, pH 7.4
Quick note: give the figure in mL/min/kg, leave out the unit.

// CLint scaled value for O=C(N[C@@H]1CCN(c2c(C(=O)N3CCOCC3)cc(Br)cc2C(F)(F)F)C1)c1cc(=O)[nH]c2c(F)c(F)ccc12 : 125

Entry COCCN(C)C(=O)c1cc(Br)cc(C(F)(F)F)c1N1CC[C@@H](NC(=O)c2cc(=O)[nH]c3c(F)cccc23)C1 — recorded CLint scaled = 562

The reported value for COc1cccc2[nH]c(=O)cc(C(=O)N[C@@H]3CCN(c4c(Cl)cc(C)cc4C(=O)N4CCOCC4)C3)c12 in terms of CLint scaled is 103

Please fill in: CLint scaled reported for O=C(N[C@@H]1CCN(c2c(OC(F)(F)F)cc(Br)cc2C(=O)N2CCOCC2)C1)c1cc(=O)[nH]c2c(F)cccc12 = 125

Lab book: CLint scaled of O=C(N[C@@H]1CCN(c2c(C(=O)N3CCOCC3)cc(Br)cc2C(F)(F)F)C1)c1cc(=O)[nH]c2c(Cl)cccc12 noted as 365

// sample COc1cccc2[nH]c(=O)cc(C(=O)N[C@@H]3CCN(c4c(C(=O)N5CCOCC5)cc(F)cc4C4CC4)C3)c12 , its CLint scaled was 31.7

// recorded CLint scaled for O=C(N[C@@H]1CCN(c2c(OC(F)(F)F)cc(Cl)cc2C(=O)N2CCOCC2)C1)c1cc(=O)[nH]c2c(F)cccc12 : 41.7

Query O=C(N[C@@H]1CCN(c2c(C(=O)N3CCOCC3)cc(Br)cc2C(F)(F)F)C1)c1c(F)c(=O)[nH]c2c(F)cccc12 yields CLint scaled of 81.7

Kindly note the recorded CLint scaled for CN1CCN(C(=O)c2cc(Cl)cc(C(F)(F)F)c2N2CC[C@@H](NC(=O)c3cc(=O)[nH]c4c(F)cccc34)C2)CC1 , which is 150

CLint scaled in this record for O=C(N[C@H]1CCN(c2c(C(=O)N3CCOCC3)cc(Br)cc2C(F)(F)F)C1)c1cc(=O)[nH]c2c(F)cccc12 : 46.7

// sample COc1cccc2[nH]c(=O)cc(C(=O)N[C@@H]3CCN(c4c(C5CC5)ccc(F)c4C(=O)N4CCOCC4)C3)c12 , its CLint scaled was 188

Field CLint scaled (entry O=C(N[C@@H]1CCN(c2c(C(=O)N3CCOCC3)cc(Br)cc2C(F)(F)F)C1)c1cc(=O)[nH]c2ccccc12 ) reads 157

CLint scaled measured on O=C(N[C@@H]1CCN(c2c(C(=O)N3CCOCC3)cc(Cl)cc2C(F)(F)F)C1)c1cc(=O)[nH]c2c(F)cccc12 = 95

Lab book: CLint scaled of CO[C@H]1CN(c2c(C(=O)N3CCOCC3)cc(C#N)cc2C(F)(F)F)C[C@@H]1NC(=O)c1cc(=O)[nH]c2c(F)cccc12 noted as 48.3

The reported CLint scaled of the molecule CN1CCN(C(=O)c2cc(Br)cc(C(F)(F)F)c2N2CC[C@@H](NC(=O)c3cc(=O)[nH]c4c(F)cccc34)C2)CC1 was 357
